Each entry below carries its measured Ki, system: UniProt P10276.
Sequence (P10276 whole entry): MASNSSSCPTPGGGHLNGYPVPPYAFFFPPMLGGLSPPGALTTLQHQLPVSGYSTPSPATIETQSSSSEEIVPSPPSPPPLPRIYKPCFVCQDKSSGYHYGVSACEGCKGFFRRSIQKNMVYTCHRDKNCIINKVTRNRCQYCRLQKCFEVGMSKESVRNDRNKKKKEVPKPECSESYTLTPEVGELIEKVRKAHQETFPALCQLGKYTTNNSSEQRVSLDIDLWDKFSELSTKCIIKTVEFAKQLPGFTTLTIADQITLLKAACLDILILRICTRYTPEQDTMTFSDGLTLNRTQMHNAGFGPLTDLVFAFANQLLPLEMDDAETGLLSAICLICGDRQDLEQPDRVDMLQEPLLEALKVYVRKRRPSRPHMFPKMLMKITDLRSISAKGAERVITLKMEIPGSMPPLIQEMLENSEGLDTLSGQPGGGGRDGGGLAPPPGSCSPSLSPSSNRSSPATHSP

Check out these entries, answers already filled in.
C/C(=C\c1ccc(C(=O)O)cc1)c1ccc(O)c(C23CC4CC(CC(C4)C2)C3)c1 | 1140 nM
COc1ccc(/C(C)=C/c2ccc(C(=O)O)cc2)cc1C1(C)CCCCC1 | 420 nM

// compound CC1(C)CCOc2ccc(-c3ccc4cc(C(=O)O)ccc4c3)cc21 , assay UniProt P10276, Ki value: 8500 nM

// compound O=C(O)c1ccc2cc(-c3ccc(C(O)CO)c(C45CC6CC(CC(C6)C4)C5)c3)ccc2c1 (configuration not stated) , assay UniProt P10276, Ki value: > 10000 nM

// compound COc1ccc(/C(C)=C/c2ccc(C(=O)O)cc2)cc1C(C)(C)C , assay UniProt P10276, Ki value: 130 nM

// compound CC1(C)CCC(C)(C)c2cc(-c3ccc4cc(C(=O)O)ccc4c3)ccc21 , assay UniProt P10276, Ki value: 580 nM

// compound O=C(O)c1ccc2cc(-c3ccc(C(=O)O)c(C45CC6CC(CC(C6)C4)C5)c3)ccc2c1 , assay UniProt P10276, Ki value: > 10000 nM
